- protocol description: Bioavailability in BALB/c mice at 100 mg/kg, po
- Format: ADME, organism-based
- details: BALB/c, mouse, in vivo
measured property: bioavailability

What does the record list as bioavailability for COc1ccc(I)c(Sc2nc3c(N)ncnc3n2CCCNC(C)C)c1 ?
55%

----------
- test system: Heat shock protein HSP 90-alpha (Homo sapiens) (UniProt P07900)
- protocol description: Hsp90 inhibition measured as HER-2 degradation in MCF-7 cells
measured property: IC50 (µM)
Number in µM, nothing else.

What does the record list as IC50 for COc1ccc(I)c(Sc2nc3c(N)ncnc3n2CCNCC(C)C)c1 ?
0.1

----------
Measured half-life of individual entries
- protocol description: Half life in BALB/c mice at 100 mg/kg, po
- Type: ADME, organism-based
- Design: dose 100 mg/kg, route oral
- details: mouse, in vivo
# output: numeric value plus its unit

{"compound": "CCC(C)NCCCn1c(Sc2cc(OC)ccc2I)nc2c(N)ncnc21 (configuration not stated)", "half-life": "0.7 h"}

What does the record list as half-life for COc1ccc(I)c(Sc2nc3c(N)ncnc3n2CCCNC(C)C)c1 ?
1.5 h

----------
Measured Vd of individual entries
- protocol description: Volume of distribution in BALB/c mice at 10 mg/kg, iv
- Type: ADME, organism-based
- Design: dose 10 mg/kg, route intravenous
- details: mouse, in vivo, read-out: Vdss
Number in L/kg, nothing else.

{"molecule": "COc1ccc(I)c(Sc2nc3c(N)ncnc3n2CCCNC(C)C)c1", "Vd / L/kg": 22}

Next molecule, Vd to be filled in.
What does the record list as Vd for CCC(C)NCCCn1c(Sc2cc(OC)ccc2I)nc2c(N)ncnc21 (configuration not stated) ?
3.4
